src = patent USRE41149E1

Tested on: Ser. marcescens, 10100
Experiment: Antimicrobial activity (MIC), standard method of Nippon Kagakuryoho Gakkai
Format: cell-based
Conditions: Ser. marcescens

# compound, Antimicrobial activity (MIC)
records = [
    ("Nc1c(F)c(N2CC(N)C3(CC3)C2)c(F)c2c1c(=O)c(C(=O)O)cn2[C@@H]1C[C@@H]1F (relative stereo) [Compound 56b]", "<0.1 µg/mL"),
    ("NC1CN(c2c(F)cc3c(=O)c(C(=O)O)cn([C@@H]4C[C@@H]4F)c3c2Cl)CC12CC2 (relative stereo) [Compound 26bb]", "<0.1 µg/mL"),
    ("N[C@H]1CCN(c2cc3c(cc2F)c(=O)c(C(=O)O)cn3[C@@H]2C[C@@H]2F)C1 (relative stereo) [Compound 9a]", "0.20 µg/mL"),
    ("NC1CN(c2c(F)cc3c(=O)c(C(=O)O)cn(C4CC4F)c3c2Cl)CC12CC2 (centres unmarked) [Compound 26ba]", "<0.1 µg/mL"),
    ("N[C@H]1CCN(c2cc3c(cc2F)c(=O)c(C(=O)O)cn3[C@@H]2C[C@@H]2F)C1 (relative stereo) [Compound 9b]", "0.10 µg/mL"),
    ("NC1CN(c2c(F)cc3c(=O)c(C(=O)O)cn(C4CC4F)c3c2Cl)CC12CC2 (single isomer, unassigned) [Compound 26ab]", "<0.1 µg/mL"),
    ("NC1CN(c2c(F)cc3c(=O)c(C(=O)O)cn([C@@H]4C[C@@H]4F)c3c2Cl)CC12CCC2 (relative stereo) [Compound 58b]", "<0.1 µg/mL"),
    ("C[C@H]1C[C@H](N)CN1c1nc2c(cc1F)c(=O)c(C(=O)O)cn2[C@@H]1C[C@@H]1F (relative stereo) [Compound 31b]", "0.10 µg/mL"),
]
